Conditions: buffer; pH 7.4; 6.0 h; 150.0 µM
Quick rule: solubility kinetic of at least 7 µg/mL means YES, below that means NO.

COc1cc(Nc2nc(-c3ccncc3)nc3ccccc23)ccc1N1CCN(C)CC1: YES
COc1cccc(C(=O)Nc2nc(-c3nnn(-c4cccc(Cl)c4C)c3C)ns2)c1: NO
O=S(=O)(Nc1nccs1)c1ccc(NCc2cccc(O)c2)cc1: YES
Cc1ccc(S(=O)(=O)N2CCCc3cc(NS(=O)(=O)c4ccccc4)ccc32)cc1: NO
Cc1nn2c(c1-c1ccccc1-c1ccccc1)N(Cc1ccccc1)CCC2: NO

Does solubility kinetic meet or surpass 7 µg/mL for CC(C)N(CCCNC(=O)Nc1ccc(C(C)(C)C)cc1)C[C@H]1O[C@@H](n2ccc3c(N)ncnc32)[C@H](O)[C@@H]1O ?
YES

Does solubility kinetic meet or surpass 7 µg/mL for N#Cc1ccccc1S(=O)(=O)Nc1cnccc1C(=O)Nc1nc(-c2ccccc2)cs1 ?
YES

###

solubility kinetic: recorded values
Conditions: buffer; pH 7.4; 6.0 h; 150.0 µM
Please reply with the bare figure in µg/mL and do not write the unit itself.

Some solved entries appear below for comparison.
Cc1[nH]c2ccccc2c1CN1CCN(c2ccccn2)CC1: 34.4
CC(=O)Nc1ccc(OCc2cn(CC(=O)c3ccc(O)cc3)nn2)cc1: 18.7
O=C(O)c1cccc(-n2cccc2/C=C2/NC(=O)N(c3cccc(Cl)c3)C2=O)c1: 32.7

For reference, reported solubility kinetic for COCC(C)Nc1ncnc2c1cnn2-c1ccc(C)c(C)c1 (stereo unspecified) stands at 5.58

For reference, reported solubility kinetic for O=C(Cc1c[nH]c2ncc(-c3ccc(Cl)cc3)cc12)NCc1cccnc1 stands at 17.5

For reference, reported solubility kinetic for CCOC(=O)c1csc(NC(=O)c2ccncc2NS(=O)(=O)c2ccc(C)cc2)n1 stands at 3.2

###

Details: buffer; pH 7.4; 6.0 h; 150.0 µM
Recorded Endpoint: solubility kinetic

Some solved entries appear below for comparison.
CC1=C[C@@H](CNC(C)C)[C@H](C(C)C)C[C@H]1Cc1nnc(-c2ccncc2)o1: > 54 µg/mL
N#Cc1ccccc1CSc1nc2ncc(Br)cc2[nH]1: 1.09 µg/mL
Cc1sc(NC(=O)Cc2ccc3c(c2)OCO3)nc1-c1ccc2c(c1)CCN2: < 1 µg/mL

For reference, reported solubility kinetic for Cc1ccc(-c2nc(C)c(C(=O)Nc3ccc4c(c3)C(=O)N3CCC[C@H]3C(=O)N4)s2)cc1 stands at 4.88 µg/mL

For reference, reported solubility kinetic for NC(=O)C1CCN(c2nc(-c3ccccc3[N+](=O)[O-])cs2)CC1 stands at > 49 µg/mL

For reference, reported solubility kinetic for COc1cccc(CNc2ccc(S(=O)(=O)Nc3nc4ccccc4s3)cc2)c1O stands at 2.08 µg/mL

For reference, reported solubility kinetic for Cc1cnc(CNc2nc(-c3ccccc3Cl)nc3ccccc23)cn1 stands at 41.9 µg/mL

For reference, reported solubility kinetic for CCCCOc1ccc(C(=O)N2CCC(c3n[nH]c(=O)n3-c3ccc(C)cc3)CC2)cc1 stands at < 1 µg/mL

For reference, reported solubility kinetic for CCc1ccc(-n2nc(C)c3c2NC(=O)CSC3c2ccccc2C)cc1 (stereo unspecified) stands at 1.11 µg/mL

For reference, reported solubility kinetic for O=C(NC1CCCc2c1[nH]c1ccccc21)c1ccccc1 (stereo unspecified) stands at 7.97 µg/mL

For reference, reported solubility kinetic for O=S(=O)(Nc1ccc(C2CCNCC2)cc1)c1ccc(NCc2cccc(Cl)c2O)cc1 stands at 47.2 µg/mL

For reference, reported solubility kinetic for CN1CCCC(CC2c3ccccc3Sc3ccccc32)C1.Cl (stereo unspecified) stands at > 46 µg/mL

For reference, reported solubility kinetic for Cc1ccc(S(=O)(=O)Nc2ccccc2C(=O)Nc2nc(-c3ccccc3)co2)cc1 stands at < 1 µg/mL

For reference, reported solubility kinetic for CC(C)(N)C(=O)N[C@H](COCc1ccccc1)C(=O)N1CCC2(CC1)CN(S(C)(=O)=O)c1ccccc12 stands at > 78 µg/mL

For reference, reported solubility kinetic for CC1CC(C)(C)N(C(=O)CN2C(=O)c3ccccc3C2=O)c2ccccc21 (stereo unspecified) stands at 7.25 µg/mL

For reference, reported solubility kinetic for COc1cccc(CNc2ccc(S(=O)(=O)Nc3ncccn3)cc2)c1O stands at > 57 µg/mL

For reference, reported solubility kinetic for Oc1ccccc1CN1CCNc2cc(Nc3ccccc3)ncc2C1 stands at 24.3 µg/mL

For reference, reported solubility kinetic for CCCC1=Nc2cc(C(=O)NC3CCCCC3)ccc2Sc2ccc(C)cc21 stands at 1.37 µg/mL

###

Details: buffer; pH 7.4; 6.0 h; 150.0 µM
Recorded Endpoint: solubility kinetic (µg/mL)
Please reply with the bare figure in µg/mL and do not write the unit itself.

CC(C)N(CCCNC(=O)Nc1ccc(C(C)(C)C)cc1)C[C@H]1O[C@@H](n2cc(Br)c3c(N)ncnc32)[C@H](O)[C@@H]1O: 73

Moving on to the next molecule.
For reference, reported solubility kinetic for Cc1cc(C)nc(NC(=S)N2CCN(c3ccc(Cl)cc3[N+](=O)[O-])CC2)c1 stands at 3.08

###

Settings: buffer; pH 7.4; 6.0 h; 150.0 µM
Recorded Endpoint: solubility kinetic

COc1cccc(CNc2ccc([S+](=O)([O-])Nc3ccccc3)cc2)c1Cl: < 1 µg/mL
COc1cc2ncnc(Nc3ccc(Oc4ccccc4)cc3)c2cc1OC: < 1 µg/mL
CC[C@H](NC(=O)[C@H](C)NC)C(=O)N1C[C@@H](O)C[C@H]1Cc1c(-c2[nH]c3cc(F)ccc3c2C[C@@H]2C[C@H](O)CN2C(=O)[C@H](CC)NC(=O)[C@H](C)NC)[nH]c2cc(F)ccc12: 75.2 µg/mL

For reference, reported solubility kinetic for Cc1cccc2c(C(=O)O)cc(-c3cccs3)nc12 stands at > 40 µg/mL

###

solubility kinetic: recorded values
Details: buffer; pH 7.4; 6.0 h; 150.0 µM

CCOc1ccc(N2CC(c3nc(-c4cc(OC)c(OC)c(OC)c4)no3)CC2=O)cc1 (centres undefined): 2.38 µg/mL
CC1(C)CCC(c2ccc(Cl)cc2)=C(CN2CCN(c3ccc(C(=O)NS(=O)(=O)c4ccc(N[C@H](CCN5CCOCC5)CSc5ccccc5)c(S(=O)(=O)C(F)(F)F)c4)cc3)CC2)C1: < 1 µg/mL
Cc1ccc(S(=O)(=O)Nc2ccc(C(=O)Nc3ncc(-c4ccccc4)s3)cc2)cc1: < 1 µg/mL
COc1ccccc1-c1cc2c(ccn2C)c(C(=O)NCC2CCN(C)C(=O)C2)n1 (centres undefined): > 90 µg/mL

For reference, reported solubility kinetic for O=C(NC1CCCc2c1cnn2-c1ccc(O)cc1)c1ccccn1 (centres undefined) stands at 40.8 µg/mL

For reference, reported solubility kinetic for COc1ccc(NC(=O)c2c(C)c(C(C)=O)c(C)n2C)cc1S(=O)(=O)Nc1ccc(Br)cc1 stands at < 1 µg/mL

###

solubility kinetic: recorded values
Conditions: buffer; pH 7.4; 6.0 h; 150.0 µM

Some solved entries appear below for comparison.
COc1ccccc1NC(=O)C1=C(C)Nc2c(C(=O)Nc3ccc(F)cc3)cnn2C1c1ccc(Cl)cc1 (stereo unspecified): < 1 µg/mL
CCc1nnc(NC(=O)c2nc(S(=O)(=O)Cc3ccc(C)cc3)ncc2Cl)s1: > 65 µg/mL
CCOc1ccc(-c2cn3c(n2)sc2cc(C(=O)NCCCN(CC)CC)ccc23)cc1: > 67 µg/mL
FC(F)(F)c1ccccc1-c1nc(NCc2cccs2)c2ccccc2n1: < 1 µg/mL

For reference, reported solubility kinetic for COc1ccc(-c2nc3sc(CCNC(=O)C(C)(C)C)c(C)n3n2)cc1 stands at > 55 µg/mL

For reference, reported solubility kinetic for NC(=O)C1CCN(c2ncc(-c3cccc(N4CCOCC4)c3)s2)CC1 stands at > 55 µg/mL

For reference, reported solubility kinetic for COc1ccc(OC)c(-c2cc(C(=O)N3CCN(c4ncccn4)CC3)c3ccccc3n2)c1 stands at 24.5 µg/mL

For reference, reported solubility kinetic for Cc1ccc(S(=O)(=O)Nc2ccccc2Nc2nc(-c3ccccc3)cs2)cc1 stands at < 1 µg/mL

For reference, reported solubility kinetic for CCc1cc(Cl)c(OC)c(C(=O)NC[C@@H]2CCCN2CC)c1O.Cl stands at 27.3 µg/mL

For reference, reported solubility kinetic for O=C(Nc1cc(C(F)(F)F)ccc1N1CCOCC1)c1n[nH]c(=O)c2ccccc12 stands at < 1 µg/mL

###

log10 solubility kinetic: recorded values
Conditions: buffer; pH 7.4; 6.0 h; 150.0 µM
Hi team, quick reminder: these entries are log10 of solubility kinetic (µg/mL).

Some solved entries appear below for comparison.
Cc1cnc(-c2ccccc2C(C)C)nc1NCc1ccc(-n2ccnn2)cc1: 0.82
Cn1c(=O)c2c(nc(Cl)n2Cc2ccc(Cl)cc2)n(C)c1=O: 0.33
Cc1ccc(S(=O)(=O)Nc2ccccc2C(=O)Nc2nc(-c3ccc(Cl)cc3)cs2)cc1: 0.85
COc1cc2c(c(OC)c1OC)-c1ccc(OC)c(=O)cc1[C@@H](NC(C)=O)CC2: 1.32

For reference, reported log10 solubility kinetic for Cc1ccc(-n2ncc(C(=O)NCCN3CCC(Cc4ccccc4)CC3)c2C2CCN(C(=O)OC(C)(C)C)CC2)cc1 stands at 1.37
